Cited source for all entries: ChEMBL document CHEMBL1201862

tested on: SK-MEL-5; experiment: NCI tumour cell line growth inhibition, 48 h
Activity calls are given as the source filed them. No stated cut-off is given here; in the data, active = GI50 up to about 1.1 µM and inactive = higher.
Pick one: active, inactive

Some solved entries appear below for comparison.
query: Dear all, I need the recorded test outcome for CC(=O)N/C(=C\c1ccc(Cc2nc3c([nH]2)C(=O)c2ccccc2C3=O)cc1)c1nc2c([nH]1)C(=O)c1ccccc1C2=O , thank you.
result: inactive

query: Try the compound O=C(Cn1c(C(=O)/C=C/c2ccco2)nc2ccccc21)c1ccc(Cl)cc1
result: inactive

query: Try the compound O=C1CSC(c2cccc(Oc3ccccc3)c2)N1c1cc(Cl)ccc1Cl (stereo not given)
result: inactive

query: Try the compound O=C1c2cccnc2-c2nccc3c2c1nc1cc(Br)ccc13
result: active

// next entry
query: Dear all, I need the recorded test outcome for COC(=O)c1c(OC)cc2cc3c(c(O)c2c1C)C(=O)C1(O)C(=O)C=C(OC)C(OC(=O)CC(C)N)=C1C3=O (stereo not given) , thank you.
result: inactive
